TGI listing for selected compounds.
Test system: NCI-H460 lung
Test: NCI tumour cell line growth inhibition, 48 h
Expressed in µM, but write only the number.

Sample records with TGI:
>  <COMPOUND>
CC1CCP(=O)(c2ccccc2)c2ccccc21 (stereo unspecified)

>  <EXPERIMENTAL_RESULT>
80.3

$$$$
>  <COMPOUND>
COc1ccc(-c2nc3sc(-c4ccc(Cl)cc4)cn3n2)cc1

>  <EXPERIMENTAL_RESULT>
4

$$$$
>  <COMPOUND>
O=C1C=CC=CC2CC=C[C@@H](O)C12 (stereo partly specified)

>  <EXPERIMENTAL_RESULT>
38

$$$$
>  <COMPOUND>
O=[N+]([O-])c1ccc(S[C@@H]2[C@H]3c4c(-c5ccccc5)[nH]c(-c5ccccc5)c4[C@@H]2C[C@H]3Cl)cc1

>  <EXPERIMENTAL_RESULT>
12.9

$$$$

# input TGI lookup needed for CCCCCCCNc1nc(C(=O)OCC)ncc1-c1ccc(C(F)(F)F)cc1 , thanks.
# output 32.7
